B1: glmS ribozyme (parent)
chain: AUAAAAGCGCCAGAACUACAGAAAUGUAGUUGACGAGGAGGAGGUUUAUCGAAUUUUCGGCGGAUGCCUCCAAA

Variants of: B1
assay.protocol: self-cleavage kobs at 640 uM GlcN6P; higher = faster cleavage; RNA array
condition.notes: with glucosamine-6-phosphate
Variants at the floor of the assay were thinned out.
measurement.kind: self-cleavage kobs at 640 uM GlcN6P (s⁻¹)

A15U C58U U69A    0.000113
A48G C50G C58G    0.000184
A15G C16U    0.00277
C58A C68G    6.18e-05
G44U C67A    0.00977
G63U U69G    3.96e-05
A12C A15U    0.00126
A14G A53C C71U    0.00168
A12U U47G C70G    0.000234
C16G    0.00182
G32A U69G    0.000117
U30G G32A    0.000709
A39G A48U    0.000139
